Each entry below carries its reported abundance fitness.
B1: Transitional endoplasmic reticulum ATPase, residues 26 to 106; numbered along this chain, P55072 (parent)
chain: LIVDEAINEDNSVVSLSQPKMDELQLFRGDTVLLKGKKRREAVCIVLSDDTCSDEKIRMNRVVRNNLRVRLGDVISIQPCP

- Variants of: B1
- methodSummary: abundance fitness (aPCA) (normalised: wild type 0, dead -1); higher = more abundant; growth selection in yeast, the domain comes from the species named
- measurementParameters: Homo sapiens
Output: the number by itself.

Known abundance fitness results, listed for orientation:
>>> numericresult("C80V")
-0.06
>>> numericresult("L26T")
-0.462

abundance fitness reading for "D50I" : -0.059

abundance fitness reading for "L71G" : 0.009

abundance fitness reading for "F27Q" : -0.098

abundance fitness reading for "S12D" : 0.019

abundance fitness reading for "E55Y" : -0.029

abundance fitness reading for "M21P" : -0.902

abundance fitness reading for "I45M" : -0.137

abundance fitness reading for "S17M" : -0.995
